Entry source: patent US20110135636A1

- System tested: T1, recombinant human EGFR extracellular domain with 6xHis (human, UniProt P00533 25-645)
- T1 construct: In-house produced; also called 6xHis EGFR ECD; soluble human EGFR ECD; not shown: 6xHis tag
- Procedure details: SPR competition, competitor Ab-10
We begin with a simple list: items and their reported % inhibition.
# output: bare number, implied unit %

Here is how some binders turned out for % inhibition.
Binder: antibody 1030 (antibody, human IgG1, kappa, V domains shown, Chimeric IgG1 kappa) VH: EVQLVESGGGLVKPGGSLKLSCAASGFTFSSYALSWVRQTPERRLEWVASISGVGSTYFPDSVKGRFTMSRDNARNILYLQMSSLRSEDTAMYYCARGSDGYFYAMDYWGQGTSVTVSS VL: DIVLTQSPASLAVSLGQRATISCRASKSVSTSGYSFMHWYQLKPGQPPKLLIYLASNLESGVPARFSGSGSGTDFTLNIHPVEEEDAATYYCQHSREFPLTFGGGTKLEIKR
% inhibition, %: 84
--
Binder: antibody 1260 (antibody, human IgG1, kappa, V domains shown, Chimeric IgG1 kappa) VH: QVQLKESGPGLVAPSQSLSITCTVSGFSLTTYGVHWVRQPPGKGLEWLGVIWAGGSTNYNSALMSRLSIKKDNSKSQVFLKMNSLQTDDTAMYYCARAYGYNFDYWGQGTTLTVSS VL: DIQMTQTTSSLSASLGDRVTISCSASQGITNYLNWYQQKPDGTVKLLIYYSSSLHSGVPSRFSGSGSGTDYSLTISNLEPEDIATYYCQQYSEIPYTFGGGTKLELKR
% inhibition, %: 12

Task: Item antibody 1284 (antibody, human IgG1, kappa, V domains shown, Chimeric IgG1 kappa) VH: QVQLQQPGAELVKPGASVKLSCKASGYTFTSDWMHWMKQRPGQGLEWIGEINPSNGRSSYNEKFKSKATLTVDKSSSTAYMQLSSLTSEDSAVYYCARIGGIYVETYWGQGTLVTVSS VL: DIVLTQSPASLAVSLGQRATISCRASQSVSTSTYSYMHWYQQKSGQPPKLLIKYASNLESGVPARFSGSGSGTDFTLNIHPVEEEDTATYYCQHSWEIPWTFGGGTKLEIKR has what recorded % inhibition?
Result: -8
